Data provenance is patent US20210238260.

Overview of recorded kcat/KM for FX activation (Xase: FVIIIa, PC/PS vesicles, Ca2+) for various proteins
- Measured target: Factor X (FX), P00742
- Sequence (P00742 whole entry, looked up): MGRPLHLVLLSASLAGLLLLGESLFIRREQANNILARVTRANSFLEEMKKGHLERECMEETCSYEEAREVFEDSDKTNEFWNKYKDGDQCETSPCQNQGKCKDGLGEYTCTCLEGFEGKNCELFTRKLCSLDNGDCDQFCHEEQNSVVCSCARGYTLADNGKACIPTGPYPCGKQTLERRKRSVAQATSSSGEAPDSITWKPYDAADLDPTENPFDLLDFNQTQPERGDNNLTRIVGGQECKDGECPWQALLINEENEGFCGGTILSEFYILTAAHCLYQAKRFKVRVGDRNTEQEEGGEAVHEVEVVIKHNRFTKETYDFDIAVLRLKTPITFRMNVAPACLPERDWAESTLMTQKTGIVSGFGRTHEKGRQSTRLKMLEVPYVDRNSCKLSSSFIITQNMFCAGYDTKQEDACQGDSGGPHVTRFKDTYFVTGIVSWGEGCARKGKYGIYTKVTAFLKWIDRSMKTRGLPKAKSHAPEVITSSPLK
Express it in M⁻¹ s⁻¹; write the number only.

| Protein | Recorded value |
| --- | --- |
| FIXa-K247N/N249S/R318Y/T343R/R403E (protein) chain 1: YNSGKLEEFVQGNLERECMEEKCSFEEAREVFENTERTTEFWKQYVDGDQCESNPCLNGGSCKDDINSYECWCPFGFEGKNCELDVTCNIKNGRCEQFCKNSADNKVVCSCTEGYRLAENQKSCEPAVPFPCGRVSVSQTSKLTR chain 2: VVGGEDAKPGQFPWQVVLNGKVDAFCGGSIVNEKWIVTAAHCVETGVKITVVAGEHNIEETEHTEQNRSVIRIIPHHNYNAAINKYNHDIALLELDEPLVLNSYVTPICIADKEYTNIFLKFGSGYVSGWGRVFHKGYSALVLQYLRVPLVDRATCLRSTKFRIYNNMFCAGFHEGGRDSCQGDSGGPHVTEVEGTSFLTGIISWGEECAMKGKYGIYTKVSEYVNWIKEKTKLT | 3.9e+07 |
| FIXa-K247N/N249S/R338E/T343R/R403E/E410N (protein) chain 1: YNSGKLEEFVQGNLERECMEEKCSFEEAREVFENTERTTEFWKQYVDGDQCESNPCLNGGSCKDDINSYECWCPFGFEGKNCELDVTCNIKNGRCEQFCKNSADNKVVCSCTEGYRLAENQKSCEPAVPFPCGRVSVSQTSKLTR chain 2: VVGGEDAKPGQFPWQVVLNGKVDAFCGGSIVNEKWIVTAAHCVETGVKITVVAGEHNIEETEHTEQNRSVIRIIPHHNYNAAINKYNHDIALLELDEPLVLNSYVTPICIADKEYTNIFLKFGSGYVSGWGRVFHKGRSALVLQYLRVPLVDRATCLESTKFRIYNNMFCAGFHEGGRDSCQGDSGGPHVTEVEGTSFLTGIISWGEECAMKGKYGIYTKVSEYVNWIKNKTKLT | 4.3e+08 |
| FIXa-K247N/N249S/R318Y/T343R/R403E/E410N (protein) chain 1: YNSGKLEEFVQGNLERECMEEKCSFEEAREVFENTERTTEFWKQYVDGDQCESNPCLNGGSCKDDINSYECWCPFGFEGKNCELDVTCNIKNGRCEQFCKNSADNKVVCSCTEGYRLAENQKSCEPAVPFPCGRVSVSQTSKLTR chain 2: VVGGEDAKPGQFPWQVVLNGKVDAFCGGSIVNEKWIVTAAHCVETGVKITVVAGEHNIEETEHTEQNRSVIRIIPHHNYNAAINKYNHDIALLELDEPLVLNSYVTPICIADKEYTNIFLKFGSGYVSGWGRVFHKGYSALVLQYLRVPLVDRATCLRSTKFRIYNNMFCAGFHEGGRDSCQGDSGGPHVTEVEGTSFLTGIISWGEECAMKGKYGIYTKVSEYVNWIKNKTKLT | 1.3e+08 |
| FIXa-K247N/N249S/R338E/T343R/E410N (protein) chain 1: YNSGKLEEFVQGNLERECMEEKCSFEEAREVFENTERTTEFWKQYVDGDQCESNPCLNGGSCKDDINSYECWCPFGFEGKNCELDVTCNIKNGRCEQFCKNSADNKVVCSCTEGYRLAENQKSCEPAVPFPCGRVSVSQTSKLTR chain 2: VVGGEDAKPGQFPWQVVLNGKVDAFCGGSIVNEKWIVTAAHCVETGVKITVVAGEHNIEETEHTEQNRSVIRIIPHHNYNAAINKYNHDIALLELDEPLVLNSYVTPICIADKEYTNIFLKFGSGYVSGWGRVFHKGRSALVLQYLRVPLVDRATCLESTKFRIYNNMFCAGFHEGGRDSCQGDSGGPHVTEVEGTSFLTGIISWGEECAMKGKYGIYTKVSRYVNWIKNKTKLT | 3.1e+08 |
| FIXa-Y155F/T343R/R403E/E410N (protein) chain 1: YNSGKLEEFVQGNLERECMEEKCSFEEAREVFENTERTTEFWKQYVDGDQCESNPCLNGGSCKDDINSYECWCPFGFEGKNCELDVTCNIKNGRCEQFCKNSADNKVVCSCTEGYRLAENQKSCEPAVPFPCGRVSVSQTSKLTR chain 2: VVGGEDAKPGQFPWQVVLNGKVDAFCGGSIVNEKWIVTAAHCVETGVKITVVAGEHNIEETEHTEQKRNVIRIIPHHNYNAAINKYNHDIALLELDEPLVLNSYVTPICIADKEYTNIFLKFGSGYVSGWGRVFHKGRSALVLQYLRVPLVDRATCLRSTKFRIYNNMFCAGFHEGGRDSCQGDSGGPHVTEVEGTSFLTGIISWGEECAMKGKYGIYTKVSEYVNWIKNKTKLT | 1.5e+08 |

stdin: Read off the recorded kcat/KM for FX activation (Xase: FVIIIa, PC/PS vesicles, Ca2+) for FIXa-Y155F/K247N/N249S/R318Y/R338E/T343R/E410N (protein) chain 1: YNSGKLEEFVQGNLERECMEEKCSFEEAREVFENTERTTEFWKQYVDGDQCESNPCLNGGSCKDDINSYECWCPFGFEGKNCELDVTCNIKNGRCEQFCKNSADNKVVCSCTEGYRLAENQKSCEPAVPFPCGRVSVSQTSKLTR chain 2: VVGGEDAKPGQFPWQVVLNGKVDAFCGGSIVNEKWIVTAAHCVETGVKITVVAGEHNIEETEHTEQNRSVIRIIPHHNYNAAINKYNHDIALLELDEPLVLNSYVTPICIADKEYTNIFLKFGSGYVSGWGRVFHKGYSALVLQYLRVPLVDRATCLESTKFRIYNNMFCAGFHEGGRDSCQGDSGGPHVTEVEGTSFLTGIISWGEECAMKGKYGIYTKVSRYVNWIKNKTKLT
stdout: 5e+08

stdin: Read off the recorded kcat/KM for FX activation (Xase: FVIIIa, PC/PS vesicles, Ca2+) for FIXa-K247N/N249S/R318Y/R338E/T343R/E410N (protein) chain 1: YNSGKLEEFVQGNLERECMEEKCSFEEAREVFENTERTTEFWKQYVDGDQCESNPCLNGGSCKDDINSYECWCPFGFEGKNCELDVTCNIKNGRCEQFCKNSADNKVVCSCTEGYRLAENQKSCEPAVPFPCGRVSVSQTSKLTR chain 2: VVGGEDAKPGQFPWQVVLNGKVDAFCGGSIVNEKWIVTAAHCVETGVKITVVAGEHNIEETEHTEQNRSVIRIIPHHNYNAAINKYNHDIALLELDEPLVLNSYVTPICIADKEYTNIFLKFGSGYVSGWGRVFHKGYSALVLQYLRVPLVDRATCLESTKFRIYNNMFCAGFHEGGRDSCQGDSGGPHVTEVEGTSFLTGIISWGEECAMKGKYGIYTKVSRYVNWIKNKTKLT
stdout: 3.2e+08
